molecular target: PDE4B1 (Homo sapiens); construct: made in house; host or cells: SF21 insect cells (baculovirus; pCRBac vector), 1000 x g supernatant of homogenate; test: Inhibition of type 4 phosphodiesterase (PDE4) activity, modified SPA test with recombinant PDE4B1 expressed in SF21 insect cells; format: biochemical; conditions: recombinant PDE4B1, 0.5 μM cAMP, read-out: PDE4B1 inhibitory values [measured as −log IC50 (mol/l)] (converted)
Here, each record is paired with measured IC50 data.

COCC(=O)N1CCC(NC(=O)c2c(C)[nH]c3c(-c4cc(F)ccc4OCC4CC4)ncnc23)CC1 | 100 to 1000 nM

GET /values?readout=IC50&system=PDE4B1 (Homo sapiens)&item= COCC(=O)N1CCC(NC(=O)c2c(C)[nH]c3c(-c4cc(C(F)F)ccc4OCC4CC4)ncnc23)CC1
< 100 nM

# repeat for CCc1ccc(OCC2CC2)c(-c2ncnc3c(C(=O)N[C@H]4CC[C@@H](NC(C)=O)CC4)c(C)[nH]c23)c1
100 to 1000 nM

# repeat for COCC(=O)N1C[C@@H](NC(=O)c2c(C)[nH]c3c(-c4cc(C(F)F)ccc4OCC4CC4)ncnc23)C[C@@H]1C
< 100 nM

----------
Here, each record is paired with measured IC50 data.
biological target: PDE4B1 (Homo sapiens, UniProt Q07343); construct: made in house; host or cells: SF21 insect cells (baculovirus; pCRBac vector), 1000 x g supernatant of homogenate; assay: Inhibition of type 4 phosphodiesterase (PDE4) activity, modified SPA test with recombinant PDE4B1 expressed in SF21 insect cells; assay type: biochemical; details: recombinant PDE4B1, 0.5 μM cAMP, read-out: PDE4B1 inhibitory values [measured as −log IC50 (mol/l)] (converted)
Sequence (Q07343 whole entry): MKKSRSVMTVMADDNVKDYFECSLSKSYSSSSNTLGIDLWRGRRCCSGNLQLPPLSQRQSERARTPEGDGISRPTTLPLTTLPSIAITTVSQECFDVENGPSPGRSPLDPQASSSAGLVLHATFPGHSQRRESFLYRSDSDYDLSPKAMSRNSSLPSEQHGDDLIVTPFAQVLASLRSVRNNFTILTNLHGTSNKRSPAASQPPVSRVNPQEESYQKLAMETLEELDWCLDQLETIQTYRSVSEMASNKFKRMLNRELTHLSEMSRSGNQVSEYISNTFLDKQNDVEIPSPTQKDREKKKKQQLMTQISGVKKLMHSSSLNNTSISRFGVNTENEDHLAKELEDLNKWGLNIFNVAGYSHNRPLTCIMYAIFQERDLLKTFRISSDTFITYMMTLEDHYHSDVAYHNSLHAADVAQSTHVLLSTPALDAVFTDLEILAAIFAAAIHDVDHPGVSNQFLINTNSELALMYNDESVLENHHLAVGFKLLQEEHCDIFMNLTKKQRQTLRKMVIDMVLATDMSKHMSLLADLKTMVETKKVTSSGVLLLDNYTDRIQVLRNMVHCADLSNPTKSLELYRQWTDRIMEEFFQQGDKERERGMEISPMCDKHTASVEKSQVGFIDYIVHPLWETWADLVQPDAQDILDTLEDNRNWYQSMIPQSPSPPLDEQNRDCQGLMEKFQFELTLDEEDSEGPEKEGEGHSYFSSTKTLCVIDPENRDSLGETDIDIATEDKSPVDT

Cc1[nH]c2c(-c3cc(F)ccc3OCC3CC3)ncnc2c1C(=O)N[C@H]1CC[C@@H](NC(=O)[C@H](C)O)CC1 | 100 to 1000 nM
CCC(=O)N1CCC(NC(=O)c2c(C)[nH]c3c(-c4cc(OC)ccc4OCC4CC4)ncnc23)CC1 | 100 to 1000 nM
CCc1ccc(OCC2CC2)c(-c2ncnc3c(C(=O)N[C@H]4CC[C@H](NC(C)=O)CC4)c(C)[nH]c23)c1 | < 100 nM
CCC(=O)N[C@H]1CC[C@H](NC(=O)c2c(C)[nH]c3c(-c4cc(F)ccc4OCC4CC4)ncnc23)CC1 | < 100 nM

# IC50 lookup, item CCc1ccc(OCC2CC2)c(-c2ncnc3c(C(=O)N[C@H]4CC[C@@H](NC(=O)CO)CC4)c(C)[nH]c23)c1
< 100 nM

# repeat for CC(=O)N[C@H]1CC[C@H](NC(=O)c2c(C)[nH]c3c(-c4cc(C(F)F)ccc4OCC4CC4)ncnc23)[C@H](F)C1 (relative stereo)
< 100 nM

# repeat for CCC(=O)N[C@H]1CC[C@H](NC(=O)c2c(C)[nH]c3c(-c4cc(C(F)F)ccc4OCC4CC4)ncnc23)C[C@H]1F (relative stereo)
< 100 nM

----------
Here, each record is paired with measured IC50 data.
biological target: PDE4B1 (Homo sapiens); construct: made in house; host or cells: SF21 insect cells (baculovirus; pCRBac vector), 1000 x g supernatant of homogenate; assay: Inhibition of type 4 phosphodiesterase (PDE4) activity, modified SPA test with recombinant PDE4B1 expressed in SF21 insect cells; format: biochemical; details: recombinant PDE4B1, 0.5 μM cAMP, read-out: PDE4B1 inhibitory values [measured as −log IC50 (mol/l)] (converted)

A selection of reference data follows.
CC(=O)N1C[C@@H](NC(=O)c2c(C)[nH]c3c(-c4cc(C(F)F)ccc4OCC4CC4)ncnc23)C[C@@H]1C | < 100 nM
CC(=O)N1CCC(NC(=O)c2c(C)[nH]c3c(-c4cc(C(F)F)ccc4OCC4CC4)ncnc23)CC1 [Example P1] | < 100 nM
COCC(=O)N[C@H]1CC[C@@H](NC(=O)c2c(C)[nH]c3c(-c4cc(C)ccc4OCC4CC4)ncnc23)CC1 | < 100 nM
CCC(=O)N[C@H]1CC[C@H](NC(=O)c2c(C)[nH]c3c(-c4cc(C(F)F)ccc4OCC4CC4)ncnc23)[C@@H](C)C1 (relative stereo) | < 100 nM
COc1ccc(OCC2CC2)c(-c2ncnc3c(C(=O)NC4CCN(C(=O)CO)CC4)c(C)[nH]c23)c1 | 100 to 1000 nM
CCC(=O)N[C@H]1CC[C@@H](NC(=O)c2c(C)[nH]c3c(-c4cc(C(F)(F)F)ccc4OCC4CC4)ncnc23)CC1 | < 100 nM

# IC50 lookup, item Cc1ccc(OCC2CC2)c(-c2ncnc3c(C(=O)N[C@H]4CC[C@H](NC(=O)CO)CC4)c(C)[nH]c23)c1
< 100 nM

# repeat for Cc1[nH]c2c(-c3cc(F)ccc3OCC3CC3)ncnc2c1C(=O)N[C@H]1CC[C@H](NC(=O)[C@H](C)O)CC1
< 100 nM

# repeat for CC(=O)N1CCC(NC(=O)c2c(C)[nH]c3c(-c4cc(F)ccc4OCC4CC4)ncnc23)CC1
100 to 1000 nM

# repeat for Cc1ccc(OCC2CC2)c(-c2ncnc3c(C(=O)N[C@H]4CCC[C@@H]4O)c(C)[nH]c23)c1
< 100 nM

----------
target: PDE5A1 (Homo sapiens, UniProt O76074); construct: from tissue; host or cells: human platelets from fresh donor blood (10,000 x g supernatant of sonicated lysate); experiment: Inhibition of type 5 phosphodiesterase (PDE5) activity, modified SPA test with human platelet lysate; type: biochemical; settings: 0.5 μM cGMP, read-out: PDE5A1 inhibitory values [measured as −log IC50 (mol/l)] (converted)
readout_name: IC50

CC(=O)N1C[C@@H](O)[C@H](NC(=O)c2c(C)[nH]c3c(-c4ccc(F)cc4OCC4CC4)ncnc23)C1 (relative stereo) | 1 to 10 nM
CCc1ccc(OCC2CC2)c(-c2ncnc3c(C(=O)N[C@H]4CC[C@H](NC(C)=O)CC4)c(C)[nH]c23)c1 | < 1 nM
CCC(=O)N1C[C@@H](O)[C@H](NC(=O)c2c(C)[nH]c3c(-c4cc(OC)ccc4OCC4CC4)ncnc23)C1 (relative stereo) | 1 to 10 nM
COCC(=O)N1CC[C@@H](NC(=O)c2c(C)[nH]c3c(-c4cc(OC)ccc4OCC4CC4)ncnc23)C1 | < 1 nM
Cc1[nH]c2c(-c3cc(F)ccc3OCC3CC3)ncnc2c1C(=O)N[C@@H]1CCN(C(=O)CO)C[C@H]1O (relative stereo) | 1 to 10 nM

// next item, IC50 requested
# IC50 lookup, item COCC(=O)N[C@H]1CC[C@H](NC(=O)c2c(C)[nH]c3c(-c4c(OCC5CC5)ccc5c4OCO5)ncnc23)CC1
< 1 nM

----------
target: PDE5A1 (Homo sapiens); construct: from tissue; host or cells: human platelets from fresh donor blood (10,000 x g supernatant of sonicated lysate); test: Inhibition of type 5 phosphodiesterase (PDE5) activity, modified SPA test with human platelet lysate; format: biochemical; conditions: 0.5 μM cGMP, read-out: PDE5A1 inhibitory values [measured as −log IC50 (mol/l)] (converted)
Here, each record is paired with measured IC50 data.

Cc1[nH]c2c(-c3cc(C(C)C)ccc3OCC3CC3)ncnc2c1C(=O)N[C@H]1CC[C@H](NC(=O)[C@H](C)O)CC1 | < 1 nM
COCC(=O)N[C@H]1CC[C@H](NC(=O)c2c(C)[nH]c3c(-c4cc(C)ccc4OCC4CC4)ncnc23)CC1 | < 1 nM
CC(=O)N[C@H]1CC[C@H](NC(=O)c2c(C)[nH]c3c(-c4cc(C(C)C)ccc4OCC4CC4)ncnc23)CC1 | < 1 nM
CC(=O)N1C[C@@H](NC(=O)c2c(C)[nH]c3c(-c4cc(C(F)F)ccc4OCC4CC4)ncnc23)C[C@@H]1C | 1 to 10 nM
CCC(=O)N[C@H]1CC[C@H](NC(=O)c2c(C)[nH]c3c(-c4c(OCC5CC5)ccc5c4OCO5)ncnc23)CC1 | < 1 nM

// next item, IC50 requested
# IC50 lookup, item COc1ccc(OCC2CC2)c(-c2ncnc3c(C(=O)NC4CN(C(=O)C(C)O)CC4O)c(C)[nH]c23)c1 (mixture of isomers)
1 to 10 nM

----------
Here, each record is paired with measured IC50 data.
molecular target: PDE5A1 (Homo sapiens); construct: from tissue; host or cells: human platelets from fresh donor blood (10,000 x g supernatant of sonicated lysate); assay: Inhibition of type 5 phosphodiesterase (PDE5) activity, modified SPA test with human platelet lysate; assay type: biochemical; details: 0.5 μM cGMP, read-out: PDE5A1 inhibitory values [measured as −log IC50 (mol/l)] (converted)

Cc1[nH]c2c(-c3cc(C(C)C)ccc3OCC3CC3)ncnc2c1C(=O)N[C@H]1CC[C@@H](NC(=O)[C@H](C)O)CC1 | < 1 nM

# IC50 lookup, item CCC(=O)N[C@H]1CC[C@H](NC(=O)c2c(C)[nH]c3c(-c4cc(OC)ccc4OCC4CC4)ncnc23)CC1
< 1 nM

# repeat for COCC(=O)N[C@H]1CC[C@H](NC(=O)c2c(C)[nH]c3c(-c4cc(C(F)F)ccc4OCC4CC4)ncnc23)C1
< 1 nM

# repeat for COc1cc(-c2ncnc3c(C(=O)N[C@@H]4CCN(C(C)=O)C[C@H]4O)c(C)[nH]c23)c(OCC2CC2)cc1F (relative stereo)
< 1 nM

# repeat for CCOC(=O)N1CCC(NC(=O)c2c(C)[nH]c3c(-c4c(OCC5CC5)ccc5c4OCO5)ncnc23)CC1
< 1 nM

# repeat for COc1cc(OCC2CC2)c(-c2nc(C)nc3c(C(=O)NC4CCN(C(=O)[C@H](C)O)CC4)c(C)[nH]c23)cc1F
< 1 nM

# repeat for Cc1[nH]c2c(-c3cc(F)ccc3OCC3CC3)ncnc2c1C(=O)N[C@@H]1CCN(C(=O)CO)C1
1 to 10 nM

# repeat for Cc1[nH]c2c(-c3ccc(F)cc3OCC3CC3)ncnc2c1C(=O)N[C@H]1CCN(C(=O)CO)C[C@@H]1O (relative stereo)
1 to 10 nM

# repeat for COc1cc(-c2ncnc3c(C(=O)N[C@@H]4CN(C(=O)[C@H](C)O)C[C@H]4O)c(C)[nH]c23)c(OCC2CC2)cc1F (relative stereo)
< 1 nM

# repeat for CC(=O)N1C[C@@H](O)[C@H](NC(=O)c2c(C)[nH]c3c(-c4c(OCC5CC5)ccc5c4OCO5)ncnc23)C1 (relative stereo)
< 1 nM

# repeat for CCOc1ccc(C(F)(F)F)cc1-c1ncnc2c(C(=O)NC3CCN(C(C)=O)CC3)c(C)[nH]c12
< 1 nM

# repeat for CCOc1ccc(F)cc1-c1ncnc2c(C(=O)NC3CCN(C(=O)[C@H](C)O)CC3)c(C)[nH]c12
1 to 10 nM

# repeat for CCc1ccc(OCC2CC2)c(-c2ncnc3c(C(=O)N[C@H]4CC[C@@H](NC(=O)CO)CC4)c(C)[nH]c23)c1
< 1 nM

# repeat for CCC(=O)N1CCC(NC(=O)c2c(C)[nH]c3c(-c4cc(C(C)=O)ccc4OCC4CC4)ncnc23)CC1
< 1 nM
